Target or system Carbonic anhydrase 9 (Homo sapiens, UniProt Q16790); recorded quantity log10(Ki).
Heads up, the numbers here are log10 of Ki in nM units.

>>> df
                               input_smiles                             target_entity  assay_readout  observed_result
0  NS(=O)(=O)c1ccc(CCNC(=[Se])NC(=O)c2ccc(-c3ccccc3)cc2)cc1  Carbonic anhydrase 9 (Homo sapiens, UniProt Q16790)      log10(Ki)             3.69
1  NS(=O)(=O)c1cccc(NC(=[Se])NC(=O)c2ccccc2)c1  Carbonic anhydrase 9 (Homo sapiens, UniProt Q16790)      log10(Ki)             2.57
2  NS(=O)(=O)c1cccc(NC(=[Se])NC(=O)c2ccc(C(F)(F)F)cc2C(F)(F)F)c1  Carbonic anhydrase 9 (Homo sapiens, UniProt Q16790)      log10(Ki)             3.67
3  CCCCCCCc1ccc(C(=O)NC(=[Se])Nc2ccc(S(N)(=O)=O)cc2)cc1  Carbonic anhydrase 9 (Homo sapiens, UniProt Q16790)      log10(Ki)             1.40
4  NS(=O)(=O)c1ccc(NC(=[Se])NC(=O)c2ccccc2)cc1  Carbonic anhydrase 9 (Homo sapiens, UniProt Q16790)      log10(Ki)             0.66
5  CC(=O)Oc1ccccc1C(=O)NC(=[Se])Nc1ccc(S(N)(=O)=O)cc1  Carbonic anhydrase 9 (Homo sapiens, UniProt Q16790)      log10(Ki)             1.13
6  Cc1cc(C(=O)NC(=[Se])Nc2cc(S(N)(=O)=O)ccc2O)ccc1Br  Carbonic anhydrase 9 (Homo sapiens, UniProt Q16790)      log10(Ki)             0.76
7  NS(=O)(=O)c1ccc(NC(=[Se])NC(=O)c2cc(Br)cc(OC(F)(F)F)c2)cc1  Carbonic anhydrase 9 (Homo sapiens, UniProt Q16790)      log10(Ki)             0.54
8  NS(=O)(=O)c1ccc(NC(=[Se])NC(=O)c2ccc3c(c2)OCO3)cc1  Carbonic anhydrase 9 (Homo sapiens, UniProt Q16790)      log10(Ki)             2.11
9  NS(=O)(=O)c1ccc(CCNC(=[Se])NC(=O)c2ccccc2)cc1  Carbonic anhydrase 9 (Homo sapiens, UniProt Q16790)      log10(Ki)             0.86

Item: `NS(=O)(=O)c1ccc(CCNC(=[Se])NC(=O)c2ccc3c(c2)OCO3)cc1` | log10(Ki): 2.02
